These data points were gathered from patent US20240317871A1.

Hi there, I'd appreciate the recorded ELISA signal for every entry that follows.
SUBJECT OF TEST: T1, cynomolgus monkey HVEM (cynomolgus monkey, UniProt A0A2K5W0R1 39-203)
T1 sequence: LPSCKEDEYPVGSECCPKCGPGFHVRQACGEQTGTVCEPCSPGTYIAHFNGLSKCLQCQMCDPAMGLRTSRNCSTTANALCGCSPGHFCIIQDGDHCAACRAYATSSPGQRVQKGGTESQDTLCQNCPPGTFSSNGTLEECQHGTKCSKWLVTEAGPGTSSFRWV
PROCEDURE TEXT: ELISA; also: test concentration or dose not given here
Write no unit; give the number alone.

Which measured ELISA signal value corresponds to Ab_062 (H5S19-16A18A) (antibody, V domains shown, also called Ab_62) VH: QIQLVQSGPELKKPGETVKISCKASGYTFTNFGVNWVKQAPGKGLKWMGWINTYTGEPTYADDFKGRFAFSLETSASTAYLQINNLKNEDTATYFCVRSYYGNSGYWGQGTTLTVSS VL: QIVLTQSPAIMSTSPGEKVTLTCSASSSVSSSYLYWYQQKPGSSPKLWIYSTSNLASGVPARFSGSGSGTSYSLTISSMEAEDAASYFCHQWSTYPWTFGGGTKLEIK ?
2.98

Which measured ELISA signal value corresponds to Ab_056 (H5S19-11A9B) (antibody, V domains shown, also called Ab_56) VH: DVQLQESGPGLVNPSQSLSLTCTVTGYSITSDYAWNWIRQFPGNKLEWMGYISYSGNTGYNPSLKSRISITRDTSKNQFFLQLNSVTSEDTATYYCARWGLRIDYWGQGTTLTVSS VL: DIKMTQSPSSMYASLGESVTITCKASQDINSYLSWFQQKPGKSPKTLIYRANRLVDGVPSRFSGSGSGQDYSLTISSLEFEDMGIYYCLQYDEFPFTFGSGTKLEMK ?
0.06

Which measured ELISA signal value corresponds to Ab_087 (H5S20-59A43A) (antibody, V domains shown, also called Ab_87) VH: EVKLVESGGGLVKPGGSLKLSCAASGFTFSSYAMSWVRQTPEKRLEWVASISSGSSTYYPDSVKGRFTISRDNARNILYLQMSSLRSEDTAMYYCAKGRGYGNYLYAMDYWGQGTSVTVSS VL: DIVMTQSQKFMSTSVGDRVSVTCKASQNVGTNVAWYQQKPGQSPKALIYSASYRYSGVPDRFTGSGSGTDFTLTISNVQSEDLAEYFCQQYNSYPLTFGGGTKLEIK ?
0.069

Which measured ELISA signal value corresponds to Ab_021 (H5S14-29A20A) (antibody, V domains shown, also called Ab_21) VH: EVQLQQSGPELVKPGASVKMSCKASGYTFTSYVMHWVKQKPGQGLEWIGYINPYNDGTKYNEKFKGKATLTSDKSSSTAYMELSSLTSEDSAVYYCARGIITTVVEPILYAMDYWGQGTSVTVSS VL: NIVLTQSPASLAVSLGQRATISCRASESVDSYGNSFMHWYQQKPGQPPKLLIYLASNLESGVPARFSGSGSRTDFTLTIDPVEADDAATYYCQQNNEDPYTFGGGTKLEIK ?
0.061

Which measured ELISA signal value corresponds to Ab_014 (H5S14-15A12A) (antibody, V domains shown, also called Ab_14) VH: QVQLKQSGPGLVQPSQSLSITCTVSGFSLTSYGVHWVRQSPGKGLEWLGVIWSGGSTDYNAAFICRLSISKDSSKSQVFFKMNSLQADDTAMYYCARNLGGSWVDYWGQGTSVTVSS VL: ETTVTQSPASLSVATGEKVTIRCITSTDIDDDMNWYQQKPGEPPKLLISEGNTLRPGVPSRFSSSGYGTDFVFTIENTLSEDVADYYCLQSDNMPYTFGGGTKLEIK ?
0.064

Which measured ELISA signal value corresponds to Ab_083 (H5S20-49A39A) (antibody, V domains shown, also called Ab_153; Ab_83) VH: EVQLQQSGAELVKPGASVKLSCTASGFNIKDTYVHWVKERPEQGLEWIGRIDPANDNTKYAPKFQVKATITADTSSNTAYLQLSSLTSEDNAVYYCAPYGNYPAWFAYWGQGTLVTVSA VL: DVLMTQTPLSLPVSLGDQVSISCRSSQNIVHSNGNTYLEWYLQKPGQSPKLLIYKVSNRFSGVPDRFSGSGSGTDFTLKISRVEAEDLGVYYCFQGSHVPLTFGAGTKLELK ?
0.06

Which measured ELISA signal value corresponds to Ab_018 (H5S14-21A19A) (antibody, V domains shown, the values of that row are written under this molecule; also called Ab_18; Ab_018 and Ab_019) VH: QVQLQQPGSELVRPGASVKLSCKASGYTFTSYWMHWVKQRPGQGLEWIGNIYPGSGSTNYDEKFKSKATLTVDTSSSTAYMQLSSLTSEDSAVYYCTIYDGYYWGQGTLVTVSA VL: DIQMTQSPASLSVSVGETVTITCRASENIYSNLAWYQQKQGKSPQLLVYAATNLADGVPSRFSGSGSGTQYSLKINSLQSEDFGSYYCQHFWGTPRTFGGGTKLEIK ?
0.059
